- System: 786-0 complex spheroid viability
- ASSAY NOTES: Anticancer human tumor 786-0 cell line growth inhibition;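 further: spheroids exposed to agents for seven days before readout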
- SETTINGS: second compound 0.316 µM; first compound 0.001 µM; stronger effect = lower value
PROPERTY LABEL: viability, T/C (%)

>  <COMPOUND>
CC(C)CC(NC(=O)CNC(=O)c1cc(Cl)ccc1Cl)B1OC(=O)CC(CC(=O)O)(C(=O)O)O1 (stereo not drawn) + NC1CC1c1ccc(-c2cccc(O)c2)cc1

>  <PROPERTY LABEL>
viability, T/C

>  <RESULT NUMBER>
106

$$$$
>  <COMPOUND>
CC[C@@]1(O)C(=O)OCc2c1cc1n(c2=O)Cc2cc3c(CN(C)C)c(O)ccc3nc2-1 + NC1CCC(NC2CC2c2ccccc2)CC1

>  <PROPERTY LABEL>
viability, T/C

>  <RESULT NUMBER>
105

$$$$
>  <COMPOUND>
Cn1ncnc1C1c2n[nH]c(=O)c3cc(F)cc(c23)NC1c1ccc(F)cc1 (stereo not drawn) + NC1CC1c1ccc(-c2cccc(O)c2)cc1

>  <PROPERTY LABEL>
viability, T/C

>  <RESULT NUMBER>
102

$$$$
>  <COMPOUND>
CC[C@@]1(O)C(=O)OCc2c1cc1n(c2=O)Cc2cc3c(CN(C)C)c(O)ccc3nc2-1 + NC1CC1c1ccc(-c2cccc(O)c2)cc1

>  <PROPERTY LABEL>
viability, T/C

>  <RESULT NUMBER>
105

$$$$
>  <COMPOUND>
CC(C)CC(NC(=O)C(Cc1ccccc1)NC(=O)c1cnccn1)B(O)O (stereo not drawn) + NC1CCC(NC2CC2c2ccccc2)CC1

>  <PROPERTY LABEL>
viability, T/C

>  <RESULT NUMBER>
110

$$$$
>  <COMPOUND>
Cn1ncnc1C1c2n[nH]c(=O)c3cc(F)cc(c23)NC1c1ccc(F)cc1 (stereo not drawn) + NC1CCC(NC2CC2c2ccccc2)CC1

>  <PROPERTY LABEL>
viability, T/C

>  <RESULT NUMBER>
118

$$$$
>  <COMPOUND>
CC(C)CC(NC(=O)C(Cc1ccccc1)NC(=O)c1cnccn1)B(O)O (stereo not drawn) + NC1CC1c1ccc(-c2cccc(O)c2)cc1

>  <PROPERTY LABEL>
viability, T/C

>  <RESULT NUMBER>
111

$$$$
>  <COMPOUND>
CC(C)CC(NC(=O)CNC(=O)c1cc(Cl)ccc1Cl)B1OC(=O)CC(CC(=O)O)(C(=O)O)O1 (stereo not drawn) + NC1CCC(NC2CC2c2ccccc2)CC1

>  <PROPERTY LABEL>
viability, T/C

>  <RESULT NUMBER>
130

$$$$

====

- Tested on: 786-0 complex spheroid viability
- ASSAY NOTES: Anticancer human tumor 786-0 cell line growth inhibition;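 further: spheroids exposed to agents for seven days before readout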
- SETTINGS: second compound 1 µM; first compound 0.00949 µM; stronger effect = lower value
PROPERTY LABEL: viability, T/C (%)

>  <COMPOUND>
Nc1ccn(C2OC(CO)C(O)C2(F)F)c(=O)n1 (stereo not drawn) + NC1CCC(NC2CC2c2ccccc2)CC1

>  <SYSTEM TESTED>
786-0 complex spheroid viability

>  <RESULT NUMBER>
3.51

$$$$
>  <COMPOUND>
Nc1ccccc1NC(=O)c1ccc(CNC(=O)OCc2cccnc2)cc1 + NC1CCC(NC2CC2c2ccccc2)CC1

>  <SYSTEM TESTED>
786-0 complex spheroid viability

>  <RESULT NUMBER>
116

$$$$
>  <COMPOUND>
NS(=O)(=O)OCC1CC(n2ccc3c(NC4CCc5ccccc54)ncnc32)CC1O (stereo not drawn) + NC1CCC(NC2CC2c2ccccc2)CC1

>  <SYSTEM TESTED>
786-0 complex spheroid viability

>  <RESULT NUMBER>
113

$$$$
>  <COMPOUND>
CCc1c2c(nc3ccc(O)cc13)-c1cc3c(c(=O)n1C2)COC(=O)[C@]3(O)CC + NC1CCC(NC2CC2c2ccccc2)CC1

>  <SYSTEM TESTED>
786-0 complex spheroid viability

>  <RESULT NUMBER>
4.31

$$$$
>  <COMPOUND>
COc1cc(C2c3cc4c(cc3C(OC3OC5COC(C)OC5C(O)C3O)C3COC(=O)C23)OCO4)cc(OC)c1O (stereo not drawn) + NC1CC1c1ccc(-c2cccc(O)c2)cc1

>  <SYSTEM TESTED>
786-0 complex spheroid viability

>  <RESULT NUMBER>
93.1

$$$$
>  <COMPOUND>
NS(=O)(=O)OCC1CC(n2ccc3c(NC4CCc5ccccc54)ncnc32)CC1O (stereo not drawn) + NC1CC1c1ccc(-c2cccc(O)c2)cc1

>  <SYSTEM TESTED>
786-0 complex spheroid viability

>  <RESULT NUMBER>
117

$$$$
>  <COMPOUND>
O=C(C=Cc1cccc(S(=O)(=O)Nc2ccccc2)c1)NO + NC1CCC(NC2CC2c2ccccc2)CC1

>  <SYSTEM TESTED>
786-0 complex spheroid viability

>  <RESULT NUMBER>
107

$$$$
>  <COMPOUND>
CCN(c1cc(-c2ccc(CN3CCOCC3)cc2)cc(C(=O)NCc2c(C)cc(C)[nH]c2=O)c1C)C1CCOCC1 + NC1CCC(NC2CC2c2ccccc2)CC1

>  <SYSTEM TESTED>
786-0 complex spheroid viability

>  <RESULT NUMBER>
116

$$$$
